Target: HLA-A*32:15
Test: IEDB peptide-MHC binding, purified MHC/competitive/fluorescence; filed as Kd, often an IC50 or EC50 that approximates it; bounds were set here for any values at or beyond the usual limits of such assays
Conditions: source organism: Yersinia pestis Nepal516
ATTRIBUTE_MEASURED: pKd
Just so you know, pKd here is -log10 of the concentration in molar units; reply with that number alone.

Tell me the measured pKd of MLYPLLWMF , please. 6.81

###

Target: HLA-A*31:01
Test: IEDB peptide-MHC binding, purified MHC/competitive/fluorescence; filed as Kd, often an IC50 or EC50 that approximates it; bounds were set here for any values at or beyond the usual limits of such assays
Details: source organism: Kurkino virus
ATTRIBUTE_MEASURED: Kd (nM)
Give a bare numeral; the unit nM is implied.

Tell me the measured Kd of MLYKSSKSR , please. 51.7

Measured values drawn from the Immune Epitope Database (IEDB) for this set.
